experiment notes: Relaxivity r1p in human plasma, 37° C.
Type: physicochemical
condition notes: 1.41 T (60 MHz)
property name: r1p at 1.41 T 37° C., human plasma (mM⁻¹ s⁻¹)

Record excerpt, results attached:
{"compound": "CN(CC(O)CN1CCN(CC(=O)O)CCN(CC(=O)O)CCN(CC(=O)O)CC1)CC(O)C(O)C(O)C(O)CO (centres unmarked) [Chelate Complex 21]", "r1p at 1.41 T 37° C., human plasma [mM⁻¹ s⁻¹]": 8.3}
{"compound": "O=C(O)CN1CCN(CC(=O)O)CCN(CC(O)CN(CCOCCO)CCOCCO)CCN(CC(=O)O)CC1 (centres unmarked) [Chelate Complex 14]", "r1p at 1.41 T 37° C., human plasma [mM⁻¹ s⁻¹]": 8.0}
{"compound": "CCOP(=O)(O)CN(Cc1ccccc1)CC(O)CN1CCN(CC(=O)O)CCN(CC(=O)O)CCN(CC(=O)O)CC1 (centres unmarked) [Chelate Complex 8]", "r1p at 1.41 T 37° C., human plasma [mM⁻¹ s⁻¹]": 9.0}
{"compound": "O=C([O-])CN1CCN(CC(=O)O)CCN(CC(=O)O)CCN(CC(O)CNC(CCc2ccccc2)P(=O)(O)[O+]=[Na])CC1 (centres unmarked) [Chelate Complex 6]", "r1p at 1.41 T 37° C., human plasma [mM⁻¹ s⁻¹]": 11.9}
{"compound": "NCC(O)CN1CCN(CC(=O)O)CCN(CC(=O)O)CCN(CC(=O)O)CC1 (centres unmarked) [Comparative 1, reference compound]", "r1p at 1.41 T 37° C., human plasma [mM⁻¹ s⁻¹]": 5.3}
{"compound": "O=C(O)CN1CCN(CC(=O)O)CCN(CC(O)CN(CC(=O)O)C2CCCCC2)CCN(CC(=O)O)CC1 (centres unmarked) [Chelate Complex 19]", "r1p at 1.41 T 37° C., human plasma [mM⁻¹ s⁻¹]": 8.05}
{"compound": "O=C(O)CN1CCN(CC(=O)O)CCN(CC(O)CNCP(=O)(O)O)CCN(CC(=O)O)CC1 (centres unmarked) [Chelate Complex 2]", "r1p at 1.41 T 37° C., human plasma [mM⁻¹ s⁻¹]": 7.5}
{"compound": "O=C(O)CN1CCN(CC(=O)O)CCN(CC(O)CN2CC(CO)(CO)C(O)C(CO)(CO)C2)CCN(CC(=O)O)CC1 (centres unmarked) [Chelate Complex 5]", "r1p at 1.41 T 37° C., human plasma [mM⁻¹ s⁻¹]": 8.9}
{"compound": "CC(O)CN1CCN(CC(=O)O)CCN(CC(=O)O)CCN(CC(=O)O)CC1 (centres unmarked) [ProHance ®, Gd-HPDO3A, reference compound]", "r1p at 1.41 T 37° C., human plasma [mM⁻¹ s⁻¹]": 4.15}

A. O=C(O)CN1CCN(CC(=O)O)CCN(CC(O)CN(CC(=O)O)C(CO)CO)CCN(CC(=O)O)CC1 (centres unmarked) [Chelate Complex 13]
B. O=C(O)CN1CCN(CC(=O)O)CCN(CC(=O)O)CCN(CC(=O)O)CC1 [Doratem ®, Gd-DOTA, reference compound]
Return label of the item with the larger r1p at 1.41 T 37° C., human plasma. Candidates: A , B . Choose, then provide that item's label.
A
(A: 7.1 mM⁻¹ s⁻¹, B: 3.6 mM⁻¹ s⁻¹)
